Data origin, for the record: the NIST ThermoML archive (doi:10.1021/acs.jced.8b00725)

Overview of recorded mass density for various compounds
# stated conditions: 303.15 K; 100 kPa; Liquid; Vibrating tube method
observable: mass density (kg/m3)

>>> measurement("CCC(=O)[O-].OCC[NH+](CCO)CCO [triethanolammonium propanoate]")
1133.47
>>> measurement("CC[NH+](CC)CC.O=C([O-])C(F)(F)F [triethylammonium trifluoroacetate]")
1157.44
>>> measurement("CC[NH+](CC)CC.CS(=O)(=O)[O-] [triethylammonium methanesulfonate]")
1113.77
>>> measurement("CC[NH+](C)C.O=C([O-])C(F)(F)F [N,N-dimethyl-N-ethylammonium trifluoroacetate]")
1203.82
>>> measurement("CC[NH2+]CC.O=S(=O)([O-])O [diethylammonium hydrogen sulfate]")
1376.33
>>> measurement("CC(=O)O.CCN(CC)CC [triethylammonium acetate]")
1005.87
>>> measurement("CC[NH+](CC)CC.O=C([O-])c1ccccc1 [triethylammonium benzoate]")
1094.65
>>> measurement("CC[NH+](CC)CC.O=S(=O)([O-])C(F)(F)F [triethylammonium trifluoromethanesulfonate]")
1260.51
>>> measurement("CCN(CC)CC.O=C(O)c1ccccc1O [triethylammonium salicylate]")
1092.57
